The reported measurements were obtained from patent US20170247448A1.

Molecular target: T1, Human hepcidin peptide (hepcidin-25) (human)
T1 construct: Synthetic 25 aa peptide; also called hep-25; Hep-25
T1 peptide: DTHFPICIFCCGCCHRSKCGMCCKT
Test: titration affinity ELISA, hepcidin 100 ng/well on Nunc Immobilizer Amino plate, CHO supernatant; antibody 25 ng/ml
OD 450 nm values by entry
Give just the number in OD450; leave the unit off.

| BINDER | EXPERIMENTAL_VALUE |
| --- | --- |
| BAP070-hum02 (antibody, IgG1, V domains shown, Expressed as soluble IgG1 in CHO cells, tested as supernatant; The entries stop inside FR4) VH: QVQLVQSGAEVKKPGASVKVSCKASGYTFTNYGMNWVRQARGQRLEWIGWINTYTGEPTYADDFKGRLTISKDTSKNQVVLTMTNMDPVDTATYYCTTYATSWYWGQG VL: AIQLTQSPSSLSASVGDRVTITCRASESVDSYGNSFMHWYQQKPGKAPKLLIYRASNLESGIPARFSGSGSGTEFTLTISSLQSEDFAVYYCQQSNEDLTFG | 2.77 |

With those in mind, consider the next binder.
Query: Give its OD 450 nm value. Item: BAP070-hum03 (antibody, IgG1, V domains shown, Expressed as soluble IgG1 in CHO cells, tested as supernatant; The entries stop inside FR4) VH: QVQLVQSGAEVKKPGASVKVSCKASGYTFTNYGMNWVRQATGQGLEWMGWINTYTGEPTYADDFKGRFVFSLDTSVSTAYLQICSLKAEDTAVYYCTTYATSWYWGQG VL: AIQLTQSPSSLSASVGDRVTITCRASESVDSYGNSFMHWYQQKPGQAPRLLIYRASNLESGVPSRFSGSGSGTDFTFTISSLQPEDIATYYCQQSNEDLTFG
Result: 2.62
